- protocol description: soluble on expression in E. coli; label from the status in PepcDB or PDB records

sequence input	soluble on expression in E. coli
MIQVYKYDENFMFVEPLVVTEIDEKGDYIFPDNCTSVPLPDSPSYYLPRFDLSKQVWIETASQEYIDSLSPPPEEPSDVELLGQSLAEARILILKQNRIILNLQNEVKNLKDGTTALEHHHHHH	soluble
MEVLGITEKALNYYRENVKDNKTITPDQALLKMIRNVLLVKETHPERVKKRLFCTEYAYGNMIIKVNRKKQVFEIVNKSGCFSDQNDWKFPKRRYIELSKELGIKDCKFRKITYSKKNHNKQKLEHHHHHH	soluble

Each recorded value in this set is attributed to the DeepSol protein solubility set.
